- System: Sprague-Dawley rats
- assay: animal or person
- experimental conditions: rats
Recorded measurements of Approximate therapeutic index, one per entry

C=C=CC1(OC(=O)c2cnnn2[C@H](C)c2ccccc2)COC1; >32
CCOC(=O)c1c(Br)nnn1[C@H](C)c1ccccc1 [Compound B118]; >12
COC(=O)C1(OC(=O)c2c(Br)nnn2[C@H](C)c2ccccc2)CC1; >3
C[C@H](c1ccccc1)n1nnc(I)c1C(=O)OC1CC1; >2

What does the data say about its Approximate therapeutic index? Entry: C[C@H](c1ccccc1)n1nnc(I)c1C(=O)OC1CCC1
>16

====

- Test system: Sprague-Dawley rats
- assay: animal or person
- Format: in vivo
- experimental conditions: rats
- Excerpt: Evaluating indicator: The end point of anesthesia: LORR was used as the end point of anesthesia; General anesthesia effect: the disappearance of forepaw righting reflex in rats lasting for 30 seconds is taken as the index of general anesthesia effect; Anesthesia recovery index: the recovery of rat forepaw righting reflex was used as the index of anesthesia recovery.
endpoint name: Approximate therapeutic index

Consider the worked cases shown below.
C[C@H](c1ccccc1)n1cnc(F)c1C(=O)COCC1CCC1; >18.2
CCSCC(=O)c1ccnn1[C@H](C)c1ccccc1; >2.1
C#CCOCC(=O)c1cc(F)nn1[C@H](C)c1ccccc1; >3.4
C[C@H](c1ccccc1)n1cnc(F)c1C(=O)COCCC1CCC1; >42.9
C[C@H](c1ccccc1)n1cncc1C(=O)COCCC1CCC1; >13.8

What does the data say about its Approximate therapeutic index? Entry: CCC(CC)OCC(=O)c1c(F)ncn1[C@H](C)c1ccccc1
>14.3

What does the data say about its Approximate therapeutic index? Entry: CCOCC(=O)c1c(F)ncn1[C@H](C)c1ccccc1
>27.7

What does the data say about its Approximate therapeutic index? Entry: C[C@H](c1ccccc1)n1cncc1C(=O)COC(C)(C)C
>2.2

What does the data say about its Approximate therapeutic index? Entry: CCOCC(=O)c1cncn1[C@H](C)c1ccccc1
>2.6

What does the data say about its Approximate therapeutic index? Entry: CC(=O)COCC(=O)c1cncn1[C@H](C)c1ccccc1
>8.3

====

Recorded measurements of Minimal lethal dose, one per entry
- Tested on: Sprague-Dawley rats
- Format: in vivo
- experimental conditions: tail vein

Consider the worked cases shown below.
COC(OC)(OC)C(=O)c1cc(F)nn1[C@H](C)c1ccccc1 [Compound D17]; >11.9 mg/kg
C[C@H](c1ccccc1)n1cncc1C(=O)C(=O)OCC(C)(C)C [Compound D86]; >9.8 mg/kg
COC(OC)(OC)C(=O)c1cncn1[C@H](C)c1ccccc1 [Compound D77]; >1.4 mg/kg
C=CCOC(OC)(OC)C(=O)c1ccnn1[C@H](C)c1ccccc1 [Compound D7]; >3.2 mg/kg
CCOC(OCC)C(=O)c1c(F)ncn1[C@H](C)c1ccccc1 [Compound D101]; >9.3 mg/kg

What does the data say about its Minimal lethal dose? Entry: CCOC(=O)C(=O)c1cncn1[C@H](C)c1ccccc1 [Compound D81]
>12.6 mg/kg

====

- System: SD rats
- experimental conditions: continuous infusion 2 x MIR 1 hour; rats affected/rats
- Description: Experimental Methods: Adult male SD rats with body weight ranging from 250 g to 350 g were selected for continuous infusion test. Evaluation indexes: the time from the beginning of continuous infusion to the […] of sedation in rats; the time from the cessation of infusion to the restoration of the forepaw turning reflex after 1 hour of continuous infusion; the time from the cessation of infusion to the complete restoration of rats after 1 hour of continuous infusion.
endpoint name: Types and incidence of adverse reactions: Tongue stretching

C[C@H](c1ccccc1)n1cnc(F)c1C(=O)COCCC1CCC1; Tongue stretching(4/6)
CCOCC(=O)c1cncn1[C@H](C)c1ccccc1; Tongue stretching(4/6)
CCOCC(=O)c1ccnn1[C@H](C)c1ccccc1; Tongue stretching(4/6)

====

- Tested on: SD rats
- experimental conditions: continuous infusion 2 x MIR 1 hour; rats affected/rats
endpoint name: Types and incidence of adverse reactions: Tremor

Consider the worked cases shown below.
COC(OC)C(=O)c1cc(F)nn1[C@H](C)c1ccccc1; 2/6
CCOC(=O)C(=O)c1cncn1[C@H](C)c1ccccc1; 2/6
COC(=O)C1(OC(=O)c2cncn2[C@H](C)c2ccccc2)CC1 [CPMM, cyclopropyl methoxycarbonyl metamidate, reference compound]; 4/6

Okay, next one:
What does the data say about its Types and incidence of adverse reactions: Tremor? Entry: COC(OC)(OC)C(=O)c1cc(F)nn1[C@H](C)c1ccccc1
1/6

====

Recorded measurements of Recovery time after stopping infusion, one per entry
- Tested on: SD rats
- experimental conditions: after 1 hour continuous infusion at 2 times the MIR, SD rats

Consider the worked cases shown below.
COC(OC)(OC)C(=O)c1cncn1[C@H](C)c1ccccc1; 20 to 30 min
CCOC(OCC)(OCC)C(=O)c1cncn1[C@H](C)c1ccccc1; 25 to 40 min
COC(=O)C1(OC(=O)c2cncn2[C@H](C)c2ccccc2)CC1 [CPMM, cyclopropyl methoxycarbonyl metamidate, reference compound]; 10 to 15 min

What does the data say about its Recovery time after stopping infusion? Entry: COC(OC)(OC)C(=O)c1ccnn1[C@H](C)c1ccccc1 [Compound D1]
35 to 45 min

What does the data say about its Recovery time after stopping infusion? Entry: COC(OC)(OC)C(=O)c1cc(F)nn1[C@H](C)c1ccccc1
25 to 35 min

What does the data say about its Recovery time after stopping infusion? Entry: COC(OC)C(=O)c1cc(F)nn1[C@H](C)c1ccccc1
30 to 40 min

What does the data say about its Recovery time after stopping infusion? Entry: CCOC(=O)C(=O)c1cncn1[C@H](C)c1ccccc1
15 to 25 min

What does the data say about its Recovery time after stopping infusion? Entry: CCOC(=O)c1cncn1C(C)c1ccccc1 (stereo not drawn) [Etomidate, reference compound]
30 to 40 min

What does the data say about its Recovery time after stopping infusion? Entry: COC(OC)(OC)C(=O)c1c(F)cnn1[C@H](C)c1ccccc1
20 to 25 min

====

- Test system: Sprague-Dawley rats
- assay: Pharmacological effect and adverse reactions under the equivalent dose (2ED50), Group D compounds
- Format: in vivo
- experimental conditions: equivalent dose (2 × ED50), number of rats of n = 8
Recorded measurements of Adverse reaction: Tongue stretching, one per entry
Please reply with the number alone, leaving off any unit.

CCOC(OCC)C(=O)c1cncn1[C@H](C)c1ccccc1; 1
CCOC(OCC)(OCC)C(=O)c1cncn1[C@H](C)c1ccccc1; 0
COC(OC)C(=O)c1cc(F)nn1[C@H](C)c1ccccc1; 0

GET /values?readout=Adverse reaction: Tongue stretching&system=Sprague-Dawley rats&item= CCSC(OC)(OC)C(=O)c1ccnn1[C@H](C)c1ccccc1 [Compound D2]
2

GET /values?readout=Adverse reaction: Tongue stretching&system=Sprague-Dawley rats&item= CCOC(OC)(OCC)C(=O)c1cncn1[C@H](C)c1ccccc1
0

GET /values?readout=Adverse reaction: Tongue stretching&system=Sprague-Dawley rats&item= COC(OC)(OC)C(=O)c1cncn1[C@H](C)c1ccccc1
1

GET /values?readout=Adverse reaction: Tongue stretching&system=Sprague-Dawley rats&item= COC(OC)(OC)C(=O)c1c(F)ncn1[C@H](C)c1ccccc1
1

GET /values?readout=Adverse reaction: Tongue stretching&system=Sprague-Dawley rats&item= C#CCOCC(OC)(OC)C(=O)c1cncn1[C@H](C)c1ccccc1
0

GET /values?readout=Adverse reaction: Tongue stretching&system=Sprague-Dawley rats&item= COC(=O)C1(OC(=O)c2cncn2[C@H](C)c2ccccc2)CC1 [CPMM, cyclopropyl methoxycarbonyl metamidate, reference compound]
4

GET /values?readout=Adverse reaction: Tongue stretching&system=Sprague-Dawley rats&item= CCOC(OCC)C(=O)c1c(F)ncn1[C@H](C)c1ccccc1
0

GET /values?readout=Adverse reaction: Tongue stretching&system=Sprague-Dawley rats&item= COC(OC)(OC)C(=O)c1ccnn1[C@H](C)c1ccccc1 [Compound D1]
1

GET /values?readout=Adverse reaction: Tongue stretching&system=Sprague-Dawley rats&item= COC(OC)(OC)C(=O)c1cc(F)nn1[C@H](C)c1ccccc1
0

GET /values?readout=Adverse reaction: Tongue stretching&system=Sprague-Dawley rats&item= CCOC(OC)(OC)C(=O)c1ccnn1[C@H](C)c1ccccc1
0

GET /values?readout=Adverse reaction: Tongue stretching&system=Sprague-Dawley rats&item= COC(=O)C(=O)c1cncn1[C@H](C)c1ccccc1
0

GET /values?readout=Adverse reaction: Tongue stretching&system=Sprague-Dawley rats&item= COC(OC)(OC)C(=O)c1c(F)cnn1[C@H](C)c1ccccc1
0

GET /values?readout=Adverse reaction: Tongue stretching&system=Sprague-Dawley rats&item= CCOC(OC)(OC)C(=O)c1cncn1[C@H](C)c1ccccc1
1

GET /values?readout=Adverse reaction: Tongue stretching&system=Sprague-Dawley rats&item= C=CCOCC(OC)(OC)C(=O)c1cncn1[C@H](C)c1ccccc1
0

GET /values?readout=Adverse reaction: Tongue stretching&system=Sprague-Dawley rats&item= CCOC(=O)c1cncn1C(C)c1ccccc1 (stereo not drawn) [Etomidate, reference compound]
4

====

Recorded measurements of Approximate therapeutic index, one per entry
- System: Sprague-Dawley rats
- assay: animal or person
- experimental conditions: rats

C[C@H](c1ccccc1)n1nnc(Cl)c1C(=O)OC1CCC1 [Compound B70]; >2

What does the data say about its Approximate therapeutic index? Entry: CCOC(=O)c1c(C(F)(F)F)nnn1[C@H](C)c1ccccc1 [Compound B145]
>4

What does the data say about its Approximate therapeutic index? Entry: CC(=O)C1=C(OC(=O)c2cnnn2[C@H](C)c2ccccc2)CCCC1 [Compound B15]
>9

What does the data say about its Approximate therapeutic index? Entry: CO[C@H]1C[C@@H](OC(=O)c2cnnn2[C@H](C)c2ccccc2)C1 [Compound B8]
>9

What does the data say about its Approximate therapeutic index? Entry: COC(=O)C1=C(OC(=O)c2cnnn2[C@H](C)c2ccccc2)CCCC1 [Compound B30]
>10

What does the data say about its Approximate therapeutic index? Entry: C=CCOC(=O)c1c(I)nnn1[C@H](C)c1ccccc1 [Compound B136]
>6

What does the data say about its Approximate therapeutic index? Entry: C[C@H](c1ccccc1)n1nnc(Br)c1C(=O)OC1CC1 [Compound B116]
>9

What does the data say about its Approximate therapeutic index? Entry: CC(C)O[C@H]1C[C@@H](OC(=O)c2cnnn2[C@H](C)c2ccccc2)C1 [Compound B26]
>10

What does the data say about its Approximate therapeutic index? Entry: C[C@H](c1ccccc1)n1nncc1C(=O)OC1(C)COC1 [Compound B14]
>5

What does the data say about its Approximate therapeutic index? Entry: C[C@H](c1ccccc1)n1nncc1C(=O)OC1CC1 [Compound B18]
>12

What does the data say about its Approximate therapeutic index? Entry: CCOC(=O)c1nnn([C@H](C)c2ccccc2)c1Br [Compound B100]
>2

What does the data say about its Approximate therapeutic index? Entry: C=C=CC1(OC(=O)c2c(Br)nnn2[C@H](C)c2ccccc2)COC1 [Compound B101]
>7
